- TARGET ENTITY: Aldo-keto reductase family 1 member B10 (Homo sapiens)
- Sequence (O60218 whole entry, the tested form may be a part): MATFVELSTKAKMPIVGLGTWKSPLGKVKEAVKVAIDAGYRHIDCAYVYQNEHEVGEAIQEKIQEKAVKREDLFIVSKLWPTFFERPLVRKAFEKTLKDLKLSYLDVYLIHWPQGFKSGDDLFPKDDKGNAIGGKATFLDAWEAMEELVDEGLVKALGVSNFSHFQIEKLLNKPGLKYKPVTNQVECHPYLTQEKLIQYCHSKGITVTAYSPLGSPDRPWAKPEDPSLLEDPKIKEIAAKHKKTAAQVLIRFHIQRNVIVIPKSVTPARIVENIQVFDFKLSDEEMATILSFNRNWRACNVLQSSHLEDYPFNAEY
- PROCEDURE SUMMARY: Inhibition of human recombinant AKR1B10 (1 to 316 residues) expressed in Escherichia coli using pyridine-3-aldehyde as substrate
pIC50: −log10 of the molar value.
EXPERIMENTAL ENDPOINT: pIC50

>>> obs_value("C[C@@]12CCC[C@H]1[C@@H]1C[C@@H](O)[C@@]3(O)C[C@@H](O)CC[C@]3(CO)[C@H]1CC2")
6.08

* * *

- PROCEDURE SUMMARY: Competitive inhibition of recombinant human AKR1B10 Trp220Tyr mutant in presence of geraniol as substrate by Lineweaver-Burk plot method
EXPERIMENTAL ENDPOINT: Ki (nM)

>>> obs_value("O=C(NCCCc1ccc(O)cc1)c1cc2ccc(O)cc2oc1=O")
14
